Where do these numbers come from? They come from patent US20190125888A1.

tested-system: human SSTR2 (Homo sapiens)
Sequence (P30874 whole entry): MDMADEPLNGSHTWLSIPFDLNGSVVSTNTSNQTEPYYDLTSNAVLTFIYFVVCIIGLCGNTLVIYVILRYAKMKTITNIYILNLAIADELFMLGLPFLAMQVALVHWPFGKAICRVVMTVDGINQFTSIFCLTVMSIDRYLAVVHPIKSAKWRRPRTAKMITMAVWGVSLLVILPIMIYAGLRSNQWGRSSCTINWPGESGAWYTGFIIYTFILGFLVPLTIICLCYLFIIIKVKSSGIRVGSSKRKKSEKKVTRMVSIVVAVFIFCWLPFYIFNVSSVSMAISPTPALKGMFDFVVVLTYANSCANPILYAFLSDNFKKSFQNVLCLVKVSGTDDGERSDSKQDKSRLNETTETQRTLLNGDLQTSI
test-method-notes: Radioligand-receptor binding assay, [125I] somatostatin, membranes from SSTR2 expressing CHO-K1 cells
pKi: −log10 of the molar value.
Items are presented alongside their recorded pKi.

| compound | tested-system | pKi |
| --- | --- | --- |
| COc1cc2cc(c1Cl)N(C)C(=O)C[C@H](OC(=O)[C@H](C)N(C)C(=O)CCSSC(C)(C)[C@H](NC(=O)CC[C@H](NC(=O)[C@@H]1CSSC[C@H](NC(=O)[C@H](N)Cc3ccccc3)C(=O)N[C@@H](Cc3ccc(O)cc3)C(=O)N[C@H](Cc3c[nH]c4ccccc34)C(=O)N[C@@H](CCCCN)C(=O)N[C@@H]([C@@H](C)O)C(=O)N1)C(N)=O)C(N)=O)[C@]1(C)O[C@H]1[C@H](C)[C@@H]1C[C@@](O)(NC(=O)O1)[C@H](OC)/C=C/C=C(\C)C2 [Conjugate 18] | human SSTR2 (Homo sapiens) | 9.74 |
| COc1cc2cc(c1Cl)N(C)C(=O)C[C@H](OC(=O)[C@H](C)N(C)C(=O)CCSSC[C@H](NC(=O)[C@@H]1CSSC[C@H](NC(=O)[C@H](N)Cc3ccccc3)C(=O)N[C@@H](Cc3ccc(O)cc3)C(=O)N[C@H](Cc3c[nH]c4ccccc34)C(=O)N[C@@H](CCCCNC(=O)NCCCCCCN)C(=O)N[C@@H]([C@@H](C)O)C(=O)N1)C(N)=O)[C@]1(C)O[C@H]1[C@H](C)[C@@H]1C[C@@](O)(NC(=O)O1)[C@H](OC)/C=C/C=C(\C)C2 [Conjugate 56] | human SSTR2 (Homo sapiens) | 5.72 |
| CCNC(=O)N[C@H](Cc1ccccc1)C(=O)N[C@H]1CSSC[C@@H](C(=O)N[C@@H](CSSCCC(=O)N(C)[C@@H](C)C(=O)O[C@H]2CC(=O)N(C)c3cc(cc(OC)c3Cl)C/C(C)=C/C=C/[C@@H](OC)[C@@]3(O)C[C@H](OC(=O)N3)[C@@H](C)[C@@H]3O[C@@]23C)C(N)=O)NC(=O)[C@H]([C@@H](C)O)NC(=O)[C@H](CCCCN)NC(=O)[C@@H](Cc2c[nH]c3ccccc23)NC(=O)[C@H](Cc2ccc(O)cc2)NC1=O [Conjugate 39] | human SSTR2 (Homo sapiens) | 10.15 |
| COc1cc2cc(c1Cl)N(C)C(=O)C[C@H](OC(=O)[C@H](C)N(C)C(=O)CCSSC[C@H](NC(=O)[C@@H]1CSSC[C@H](NC(=O)[C@@H](Cc3ccccc3)NC(=O)NCCC(F)(F)C(F)(F)C(F)(F)C(F)(F)C(F)(F)C(F)(F)C(F)(F)C(F)(F)F)C(=O)N[C@@H](Cc3ccc(O)cc3)C(=O)N[C@H](Cc3c[nH]c4ccccc34)C(=O)N[C@@H](CCCCN)C(=O)N[C@@H]([C@@H](C)O)C(=O)N1)C(N)=O)[C@]1(C)O[C@H]1[C@H](C)[C@@H]1C[C@@](O)(NC(=O)O1)[C@H](OC)/C=C/C=C(\C)C2 [Conjugate 40] | human SSTR2 (Homo sapiens) | 8.45 |
| COc1cc2cc(c1Cl)N(C)C(=O)C[C@H](OC(=O)[C@H](C)N(C)C(=O)CCSSC[C@H](NC(C)=O)C(=O)NC[C@H](NC(=O)[C@@H]1CSSC[C@H](NC(=O)[C@H](N)Cc3ccccc3)C(=O)N[C@@H](Cc3ccc(O)cc3)C(=O)N[C@H](Cc3c[nH]c4ccccc34)C(=O)N[C@@H](CCCCN)C(=O)N[C@@H]([C@@H](C)O)C(=O)N1)C(N)=O)[C@]1(C)O[C@H]1[C@H](C)[C@@H]1C[C@@](O)(NC(=O)O1)[C@H](OC)/C=C/C=C(\C)C2 [Conjugate 45] | human SSTR2 (Homo sapiens) | 10.31 |
| COc1cc2cc(c1Cl)N(C)C(=O)C[C@H](OC(=O)[C@H](C)N(C)C(=O)CCSSC[C@H](NC(=O)[C@@H]1CSSC[C@H](NC(=O)[C@@H](Cc3ccccc3)NC(=O)NCc3ccc(C(F)(F)F)cc3)C(=O)N[C@@H](Cc3ccc(O)cc3)C(=O)N[C@H](Cc3c[nH]c4ccccc34)C(=O)N[C@@H](CCCCN)C(=O)N[C@@H]([C@@H](C)O)C(=O)N1)C(N)=O)[C@]1(C)O[C@H]1[C@H](C)[C@@H]1C[C@@](O)(NC(=O)O1)[C@H](OC)/C=C/C=C(\C)C2 [Conjugate 37] | human SSTR2 (Homo sapiens) | 9.80 |
| COc1cc2cc(c1Cl)N(C)C(=O)C[C@H](OC(=O)[C@H](C)N(C)C(=O)CCSSC(C)(C)[C@H](NC(=O)[C@@H]1CSSC[C@H](NC(=O)[C@H](N)Cc3ccccc3)C(=O)N[C@@H](Cc3ccc(O)cc3)C(=O)N[C@H](Cc3c[nH]c4ccccc34)C(=O)N[C@@H](CCCCNC(=O)[C@@H](NC(=O)[C@@H](N)C(C)C)C(C)C)C(=O)N[C@@H]([C@@H](C)O)C(=O)N1)C(N)=O)[C@]1(C)O[C@H]1[C@H](C)[C@@H]1C[C@@](O)(NC(=O)O1)[C@H](OC)/C=C/C=C(\C)C2 [Conjugate 58] | human SSTR2 (Homo sapiens) | 5.40 |
